Organism: Mus musculus
method-notes: In vitro degradation rate constant Mouse brain hom
Format: ADME
This section presents compounds with their documented Rate constant values.
The answer consists of two parts: a number and, after it, its unit.

Use these answered entries as a reference point.
INSERT INTO measurements (input_smiles, observed_measurement) VALUES
  ('CN1C=CCC(C(=O)OC[C@H]2O[C@@H](n3ccc(=O)[nH]c3=O)C[C@@H]2N=[N+]=[N-])=C1', '4.15 h⁻¹'),
  ('Cc1cn([C@H]2C[C@H](N=[N+]=[N-])[C@@H](COC(=O)C3=CN(C)C=CC3)O2)c(=O)[nH]c1=O', '3.89 h⁻¹'),
  ('C[n+]1cccc(C(=O)OC[C@H]2O[C@@H](n3ccc(=O)[nH]c3=O)C[C@@H]2N=[N+]=[N-])c1.[I-]', '1.07 h⁻¹');

Next:
The measured Rate constant associated with Cc1cn([C@H]2C[C@H](N=[N+]=[N-])[C@@H](COC(=O)c3ccc[n+](C)c3)O2)c(=O)[nH]c1=O.[I-] reads 0.41 h⁻¹
